- Test system: 252836-082-R-J2-PDC tumor spheroids, viability
- METHOD NOTES: Anticancer human tumor 252836-082-R-J2-PDC patient-derived head and neck squamous cell carcinoma cell line growth inhibition [PI3K]
- RUN CONDITIONS: second compound 0.316 µM; first compound 10 µM; stronger effect = lower value; spheroids with HUVEC and MSC
# viability, T/C annotations

For orientation, consider the following solved cases.
CCCS(=O)(=O)Nc1ccc(F)c(C(=O)c2c[nH]c3ncc(-c4ccc(Cl)cc4)cc23)c1F + COc1c(OCCCN2CCOCC2)ccc2c3n(c(=NC(=O)c4cnc(N)nc4)nc12)CCN3 : 1.83%
CC1(C)CCC(CN2CCN(c3ccc(C(=O)NS(=O)(=O)c4ccc(NCC5CCOCC5)c([N+](=O)[O-])c4)c(Oc4cnc5[nH]ccc5c4)c3)CC2)=C(c2ccc(Cl)cc2)C1 + CC(Nc1ccc2c(c1)OCCn1cc(N3C(=O)OCC3C(F)F)nc1-2)C(N)=O : 6.25%

Challenge: Missing value: viability, T/C, 252836-082-R-J2-PDC tumor spheroids, viability, entry Cn1ncc(Cl)c1-c1cc(C(=O)NC(CN)Cc2cccc(F)c2)sc1Cl (stereo not drawn) + CC(Nc1ccc2c(c1)OCCn1cc(N3C(=O)OCC3C(F)F)nc1-2)C(N)=O . Fill in?
Response given: 14.1%

* * *

- Test system: 252836-082-R-J2-PDC tumor spheroids, viability
- METHOD NOTES: Anticancer human tumor 252836-082-R-J2-PDC cell line growth inhibition [PI3K];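 note: spheroids exposed to agents for seven days before readout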;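 for viability, T/C: percent of vehicle DMSO control viability so 100% = untreated growth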
- RUN CONDITIONS: second compound 0.0316 µM; first compound 0.1 µM; stronger effect = lower value; spheroids with HUVEC and MSC
ENDPOINT: viability, T/C (%)
All answers are understood in %, so give the number only.

Consider the reported viability, T/C for these compounds:
Cn1nccc1Nc1nccc(-c2ccn(C(CO)c3ccc(Cl)c(F)c3)c(=O)c2)n1 (stereo not given) + CC(Nc1ccc2c(c1)OCCn1cc(N3C(=O)OCC3C(F)F)nc1-2)C(N)=O : 74.2
CC1(C)CCC(CN2CCN(c3ccc(C(=O)NS(=O)(=O)c4ccc(NCC5CCOCC5)c([N+](=O)[O-])c4)c(Oc4cnc5[nH]ccc5c4)c3)CC2)=C(c2ccc(Cl)cc2)C1 + CC(Nc1ccc2c(c1)OCCn1cc(N3C(=O)OCC3C(F)F)nc1-2)C(N)=O : 83.8
C=CC(=O)N1CCN(c2nc(=O)n(-c3c(C)ccnc3C(C)C)c3nc(-c4c(O)cccc4F)c(F)cc23)C(C)C1 (stereo not given) + COc1c(OCCCN2CCOCC2)ccc2c3n(c(=NC(=O)c4cnc(N)nc4)nc12)CCN3 : 56.9
C[C@@H](NC(=O)c1ncnc(N)c1Cl)c1ncc(C(=O)Nc2cc(C(F)(F)F)c(Cl)cn2)s1 + CC(Nc1ccc2c(c1)OCCn1cc(N3C(=O)OCC3C(F)F)nc1-2)C(N)=O : 80.5

The record that follows has no viability, T/C shown yet.
Challenge: State the recorded viability, T/C for this entry: CC(=O)c1c(C)c2cnc(Nc3ccc(N4CCNCC4)cn3)nc2n(C2CCCC2)c1=O + Cc1nc(NC(=O)N2CCCC2C(N)=O)sc1-c1ccnc(C(C)(C)C(F)(F)F)c1
Response given: 77.7

* * *

- Test system: 252836-082-R-J2-PDC tumor spheroids, viability
- METHOD NOTES: Anticancer human tumor 252836-082-R-J2-PDC cell line growth inhibition [PI3K];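 note: spheroids exposed to agents for seven days before readout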;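 for viability, T/C: percent of vehicle DMSO control viability so 100% = untreated growth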
- RUN CONDITIONS: second compound 0.0316 µM; first compound 0.00316 µM; stronger effect = lower value; spheroids with HUVEC and MSC
ENDPOINT: viability, T/C

CCN1CCN(Cc2ccc(Nc3ncc(F)c(-c4cc(F)c5nc(C)n(C(C)C)c5c4)n3)nc2)CC1 + Cc1nc(NC(=O)N2CCCC2C(N)=O)sc1-c1ccnc(C(C)(C)C(F)(F)F)c1 : 101%
Cn1ncnc1[C@H]1c2n[nH]c(=O)c3cc(F)cc(c23)N[C@@H]1c1ccc(F)cc1 + Cc1nc(NC(=O)N2CCCC2C(N)=O)sc1-c1ccnc(C(C)(C)C(F)(F)F)c1 : 96.9%
CC(C)n1nc(-c2ccc3oc(N)nc3c2)c2c(N)ncnc21 + CC(Nc1ccc2c(c1)OCCn1cc(N3C(=O)OCC3C(F)F)nc1-2)C(N)=O : 80.7%
CCN1CCN(Cc2ccc(Nc3ncc(F)c(-c4cc(F)c5nc(C)n(C(C)C)c5c4)n3)nc2)CC1 + COc1c(OCCCN2CCOCC2)ccc2c3n(c(=NC(=O)c4cnc(N)nc4)nc12)CCN3 : 56.2%

Please turn your attention to the following entry.
Challenge: Give 252836-082-R-J2-PDC tumor spheroids, viability viability, T/C for CC(C)n1nc(-c2ccc3oc(N)nc3c2)c2c(N)ncnc21 + COc1c(OCCCN2CCOCC2)ccc2c3n(c(=NC(=O)c4cnc(N)nc4)nc12)CCN3
Response given: 48.4%

* * *

- Tested on: 252836-082-R-J2-PDC tumor spheroids, viability
- METHOD NOTES: Anticancer human tumor 252836-082-R-J2-PDC cell line growth inhibition [PI3K];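 note: spheroids exposed to agents for seven days before readout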
- RUN CONDITIONS: curve of first compound; second compound 0.1 µM; spheroids with HUVEC and MSC
IC50 listing for selected compounds.

Consider the worked cases shown below.
C#Cc1c(F)ccc2cc(O)cc(-c3ncc4c(N5CC6CCC(C5)N6)nc(OCC56CCCN5CC(F)C6)nc4c3F)c12 (stereo not drawn) + CC(Nc1ncnc2nc[nH]c12)c1cc2cccc(Cl)c2c(=O)n1-c1ccccc1 : > 10 µM
C=CC(=O)N1CCN(c2nc(=O)n(-c3c(C)ccnc3C(C)C)c3nc(-c4c(O)cccc4F)c(F)cc23)C(C)C1 (stereo not drawn) + CC(Nc1ncnc2nc[nH]c12)c1cc2cccc(Cl)c2c(=O)n1-c1ccccc1 : > 10 µM

Now for the compound whose IC50 we want.
Challenge: Lab note: need IC50 for CC1(C)CCC(CN2CCN(c3ccc(C(=O)NS(=O)(=O)c4ccc(NCC5CCOCC5)c([N+](=O)[O-])c4)c(Oc4cnc5[nH]ccc5c4)c3)CC2)=C(c2ccc(Cl)cc2)C1 + CC(Nc1ccc2c(c1)OCCn1cc(N3C(=O)OCC3C(F)F)nc1-2)C(N)=O on 252836-082-R-J2-PDC tumor spheroids, viability, anyone have it?
Response given: 3.92 µM

* * *

- System: 252836-082-R-J2-PDC tumor spheroids, viability
- METHOD NOTES: Anticancer human tumor 252836-082-R-J2-PDC cell line growth inhibition [PI3K];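 note: spheroids exposed to agents for seven days before readout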;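 for viability, T/C: percent of vehicle DMSO control viability so 100% = untreated growth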
- RUN CONDITIONS: second compound 10 µM; first compound 1 µM; stronger effect = lower value; spheroids with HUVEC and MSC
Define the label as Y when viability, T/C is strictly less than 40% and as N in all remaining cases.

Use the examples below as a reference point.
CCN1CCN(Cc2ccc(Nc3ncc(F)c(-c4cc(F)c5nc(C)n(C(C)C)c5c4)n3)nc2)CC1 + Cc1nc(NC(=O)N2CCCC2C(N)=O)sc1-c1ccnc(C(C)(C)C(F)(F)F)c1 : Y
C[C@@H](NC(=O)c1ncnc(N)c1Cl)c1ncc(C(=O)Nc2cc(C(F)(F)F)c(Cl)cn2)s1 + CC(Nc1ncnc2nc[nH]c12)c1cc2cccc(Cl)c2c(=O)n1-c1ccccc1 : N
C=CC(=O)N1CCN(c2nc(=O)n(-c3c(C)ccnc3C(C)C)c3nc(-c4c(O)cccc4F)c(F)cc23)C(C)C1 (stereo not given) + Cc1nc(NC(=O)N2CCCC2C(N)=O)sc1-c1ccnc(C(C)(C)C(F)(F)F)c1 : Y
Cn1ncc(Cl)c1-c1cc(C(=O)NC(CN)Cc2cccc(F)c2)sc1Cl (stereo not given) + Cc1nc(NC(=O)N2CCCC2C(N)=O)sc1-c1ccnc(C(C)(C)C(F)(F)F)c1 : Y

Challenge: Hello, is viability, T/C of the following molecule strictly smaller than 40%? C[C@@H](NC(=O)c1ncnc(N)c1Cl)c1ncc(C(=O)Nc2cc(C(F)(F)F)c(Cl)cn2)s1 + Cc1nc(NC(=O)N2CCCC2C(N)=O)sc1-c1ccnc(C(C)(C)C(F)(F)F)c1
Response given: Y

* * *

- Tested on: 252836-082-R-J2-PDC tumor spheroids, viability
- METHOD NOTES: Anticancer human tumor 252836-082-R-J2-PDC cell line growth inhibition [PI3K];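 note: spheroids exposed to agents for seven days before readout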;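 for viability, T/C: percent of vehicle DMSO control viability so 100% = untreated growth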
- RUN CONDITIONS: second compound 0.316 µM; first compound 10 µM; stronger effect = lower value; spheroids with HUVEC and MSC
Consider the following compounds and their measured viability, T/C readings.
Numeric only. Scale: %

Cn1ncc(Cl)c1-c1cc(C(=O)NC(CN)Cc2cccc(F)c2)sc1Cl (configuration not stated) + CC(Nc1ncnc2nc[nH]c12)c1cc2cccc(Cl)c2c(=O)n1-c1ccccc1 : 12
CC1(C)CCC(Nc2ncc(C(F)(F)F)c(-c3c[nH]c4c(P(C)(C)=O)c(C#N)ccc34)n2)CN1 (configuration not stated) + Cc1nc(NC(=O)N2CCCC2C(N)=O)sc1-c1ccnc(C(C)(C)C(F)(F)F)c1 : 6.05
CC(Cn1ccc(-c2ccc(C#N)c(Cl)c2)n1)NC(=O)c1cc(C(C)O)[nH]n1 (configuration not stated) + CC(Nc1ccc2c(c1)OCCn1cc(N3C(=O)OCC3C(F)F)nc1-2)C(N)=O : 46.5
CC1(C)CCC(CN2CCN(c3ccc(C(=O)NS(=O)(=O)c4ccc(NCC5CCOCC5)c([N+](=O)[O-])c4)c(Oc4cnc5[nH]ccc5c4)c3)CC2)=C(c2ccc(Cl)cc2)C1 + Cc1nc(NC(=O)N2CCCC2C(N)=O)sc1-c1ccnc(C(C)(C)C(F)(F)F)c1 : 3.65
CC1(C)CCC(Nc2ncc(C(F)(F)F)c(-c3c[nH]c4c(P(C)(C)=O)c(C#N)ccc34)n2)CN1 (configuration not stated) + CC(Nc1ncnc2nc[nH]c12)c1cc2cccc(Cl)c2c(=O)n1-c1ccccc1 : 4.38
CC(Cn1ccc(-c2ccc(C#N)c(Cl)c2)n1)NC(=O)c1cc(C(C)O)[nH]n1 (configuration not stated) + Cc1nc(NC(=O)N2CCCC2C(N)=O)sc1-c1ccnc(C(C)(C)C(F)(F)F)c1 : 64.7
CNC(=O)c1ccc(N2C(=S)N(c3ccc(C#N)c(C(F)(F)F)c3)C(=O)C2(C)C)cc1F + CC(Nc1ccc2c(c1)OCCn1cc(N3C(=O)OCC3C(F)F)nc1-2)C(N)=O : 52.3
C#Cc1c(F)ccc2cc(O)cc(-c3ncc4c(N5CC6CCC(C5)N6)nc(OCC56CCCN5CC(F)C6)nc4c3F)c12 (configuration not stated) + COc1c(OCCCN2CCOCC2)ccc2c3n(c(=NC(=O)c4cnc(N)nc4)nc12)CCN3 : 4.25
C#Cc1c(F)ccc2cc(O)cc(-c3ncc4c(N5CC6CCC(C5)N6)nc(OCC56CCCN5CC(F)C6)nc4c3F)c12 (configuration not stated) + CC(Nc1ccc2c(c1)OCCn1cc(N3C(=O)OCC3C(F)F)nc1-2)C(N)=O : 32.6
Cn1nccc1Nc1nccc(-c2ccn(C(CO)c3ccc(Cl)c(F)c3)c(=O)c2)n1 (configuration not stated) + Cc1nc(NC(=O)N2CCCC2C(N)=O)sc1-c1ccnc(C(C)(C)C(F)(F)F)c1 : 57.6

Challenge: viability, T/C for C#Cc1c(F)ccc2cc(O)cc(-c3ncc4c(N5CC6CCC(C5)N6)nc(OCC56CCCN5CC(F)C6)nc4c3F)c12 (configuration not stated) + Cc1nc(NC(=O)N2CCCC2C(N)=O)sc1-c1ccnc(C(C)(C)C(F)(F)F)c1 ?
Response given: 53.5

Challenge: Quick one: viability, T/C of Cn1nccc1Nc1nccc(-c2ccn(C(CO)c3ccc(Cl)c(F)c3)c(=O)c2)n1 (configuration not stated) + COc1c(OCCCN2CCOCC2)ccc2c3n(c(=NC(=O)c4cnc(N)nc4)nc12)CCN3 ?
Response given: 4.49
